- SYSTEM: equine FcRn (large alpha subunit p51) / equine beta-2-microglobulin complex, biotinylated (equine) (UniProt P30441)
- EXPERIMENT_NOTES: SPR (Biacore), pH 6
MEASURE_NAME: pKd
// pKd here means minus log10 of the molar concentration (mol/L)

Solved cases (2 shown):
BINDER	pKd
equine IgG1 G426R (antibody, part only; not given: variable domains, not shown: another chain or arm of the molecule) constant: ASTTAPKVFALAPGCGTTSDSTVALGCLVSGYFPEPVKVSWNSGSLTSGVHTFPSVLQSSGFYSLSSMVTVPASTWTSETYICNVVHAASNFKVDKRIEPIPDNHQKVCDMSKCPKCPAPELLGGPSVFIFPPNPKDTLMITRTPEVTCVVVDVSQENPDVKFNWYMDGVEVRTATTRPKEEQFNSTYRVVSVLRIQHQDWLSGKEFKCKVNNQALPQPIERTITKTKGRSQEPQVYVLAPHPDELSKSKVSVTCLVKDFYPPEINIEWQSNGQPELETKYSTTQAQQDSDGSYFLYSKLSVDRNRWQQGTTFTCRVMHEALHNHYTQKNVSKNPGK	7.99
equine IgG4 T286F (antibody, part only; not given: variable domains, not shown: another chain or arm of the molecule) constant: ASTTAPKVFPLASHSAATSGSTVALGCLVSSYFPEPVTVSWNSGALTSGVHTFPSVLQSSGLYSLSSMVTVPASSLKSQTYICNVAHPASSTKVDKKIVIKECNGGCPAECLQVGPSVFIFPPKPKDVLMISRTPTVTCVVVDVGHDFPDVQFNWYVDGVETHFATTEPKQEQFNSTYRVVSVLPIQHKDWLSGKEFKCKVNNKALPAPVERTISKPTGQPREPQVYVLAPHRDELSKNKVSVTCLVKDFYPTDIDIEWKSNGQPEPETKYSTTPAQLDSDGSYFLYSKLTVETNRWQQGTTFTCAVMHEALHNHYTEKSVSKSPGK	7.65

Input equine IgG1 N434Q (antibody, part only; not given: variable domains, not shown: another chain or arm of the molecule) constant: ASTTAPKVFALAPGCGTTSDSTVALGCLVSGYFPEPVKVSWNSGSLTSGVHTFPSVLQSSGFYSLSSMVTVPASTWTSETYICNVVHAASNFKVDKRIEPIPDNHQKVCDMSKCPKCPAPELLGGPSVFIFPPNPKDTLMITRTPEVTCVVVDVSQENPDVKFNWYMDGVEVRTATTRPKEEQFNSTYRVVSVLRIQHQDWLSGKEFKCKVNNQALPQPIERTITKTKGRSQEPQVYVLAPHPDELSKSKVSVTCLVKDFYPPEINIEWQSNGQPELETKYSTTQAQQDSDGSYFLYSKLSVDRNRWQQGTTFTCGVMHEALHQHYTQKNVSKNPGK . Output pKd: 7.89

Form: binder = equine IgG4 M428E (antibody, part only; not given: variable domains, not shown: another chain or arm of the molecule) constant: ASTTAPKVFPLASHSAATSGSTVALGCLVSSYFPEPVTVSWNSGALTSGVHTFPSVLQSSGLYSLSSMVTVPASSLKSQTYICNVAHPASSTKVDKKIVIKECNGGCPAECLQVGPSVFIFPPKPKDVLMISRTPTVTCVVVDVGHDFPDVQFNWYVDGVETHTATTEPKQEQFNSTYRVVSVLPIQHKDWLSGKEFKCKVNNKALPAPVERTISKPTGQPREPQVYVLAPHRDELSKNKVSVTCLVKDFYPTDIDIEWKSNGQPEPETKYSTTPAQLDSDGSYFLYSKLTVETNRWQQGTTFTCAVEHEALHNHYTEKSVSKSPGK ; pKd = 7.39

Record summary for equine IgG4 D312G (antibody, part only; not given: variable domains, not shown: another chain or arm of the molecule) constant: ASTTAPKVFPLASHSAATSGSTVALGCLVSSYFPEPVTVSWNSGALTSGVHTFPSVLQSSGLYSLSSMVTVPASSLKSQTYICNVAHPASSTKVDKKIVIKECNGGCPAECLQVGPSVFIFPPKPKDVLMISRTPTVTCVVVDVGHDFPDVQFNWYVDGVETHTATTEPKQEQFNSTYRVVSVLPIQHKGWLSGKEFKCKVNNKALPAPVERTISKPTGQPREPQVYVLAPHRDELSKNKVSVTCLVKDFYPTDIDIEWKSNGQPEPETKYSTTPAQLDSDGSYFLYSKLTVETNRWQQGTTFTCAVMHEALHNHYTEKSVSKSPGK : reported pKd = 7.95

Notebook: equine IgG1 Y436S (antibody, part only; not given: Variable domains, not shown: another chain or arm of the molecule) constant: ASTTAPKVFALAPGCGTTSDSTVALGCLVSGYFPEPVKVSWNSGSLTSGVHTFPSVLQSSGFYSLSSMVTVPASTWTSETYICNVVHAASNFKVDKRIEPIPDNHQKVCDMSKCPKCPAPELLGGPSVFIFPPNPKDTLMITRTPEVTCVVVDVSQENPDVKFNWYMDGVEVRTATTRPKEEQFNSTYRVVSVLRIQHQDWLSGKEFKCKVNNQALPQPIERTITKTKGRSQEPQVYVLAPHPDELSKSKVSVTCLVKDFYPPEINIEWQSNGQPELETKYSTTQAQQDSDGSYFLYSKLSVDRNRWQQGTTFTCGVMHEALHNHSTQKNVSKNPGK , pKd read as 7.87

According to the records, this binder equine IgG4 D312T (antibody, part only; not given: variable domains, not shown: another chain or arm of the molecule) constant: ASTTAPKVFPLASHSAATSGSTVALGCLVSSYFPEPVTVSWNSGALTSGVHTFPSVLQSSGLYSLSSMVTVPASSLKSQTYICNVAHPASSTKVDKKIVIKECNGGCPAECLQVGPSVFIFPPKPKDVLMISRTPTVTCVVVDVGHDFPDVQFNWYVDGVETHTATTEPKQEQFNSTYRVVSVLPIQHKTWLSGKEFKCKVNNKALPAPVERTISKPTGQPREPQVYVLAPHRDELSKNKVSVTCLVKDFYPTDIDIEWKSNGQPEPETKYSTTPAQLDSDGSYFLYSKLTVETNRWQQGTTFTCAVMHEALHNHYTEKSVSKSPGK displays pKd of 7.54

Recorded pKd (binder equine IgG1 G426T (antibody, part only; not given: variable domains, not shown: another chain or arm of the molecule) constant: ASTTAPKVFALAPGCGTTSDSTVALGCLVSGYFPEPVKVSWNSGSLTSGVHTFPSVLQSSGFYSLSSMVTVPASTWTSETYICNVVHAASNFKVDKRIEPIPDNHQKVCDMSKCPKCPAPELLGGPSVFIFPPNPKDTLMITRTPEVTCVVVDVSQENPDVKFNWYMDGVEVRTATTRPKEEQFNSTYRVVSVLRIQHQDWLSGKEFKCKVNNQALPQPIERTITKTKGRSQEPQVYVLAPHPDELSKSKVSVTCLVKDFYPPEINIEWQSNGQPELETKYSTTQAQQDSDGSYFLYSKLSVDRNRWQQGTTFTCTVMHEALHNHYTQKNVSKNPGK ): 8.01
